- Tested on: S. aureus RN4220
- method.notes: growth inhibition call (relative growth <= 0.2)
- condition.notes: 50 µM
The whole screen tested about 39,000 compounds, of which about 500 (1.3%) were called active. The entries come from a sample that favours actives as a whole.
Your answer must be one of the following: T for active, F for inactive

Solved cases below.
compound	class.label
NCC1OC(OC2C(N)CC(N)C(OC3OC(CO)C(O)C(N)C3O)C2O)C(N)C(O)C1O.O=S(=O)(O)O (stereo not drawn)	T
COc1cccc(S(=O)(=O)N(C)C[C@@H]2Oc3ncc(C#CC(C)C)cc3C(=O)N([C@@H](C)CO)C[C@H]2C)c1	F
C[C@H]1CN([C@@H](C)CO)C(=O)c2cccc(NS(C)(=O)=O)c2O[C@H]1CN(C)C(=O)Nc1ccc(C(F)(F)F)cc1	F
C[C@@H]1CN([C@@H](C)CO)C(=O)c2cc(NC(=O)CCC(F)(F)F)ccc2O[C@@H]1CN(C)Cc1ccc(Oc2ccccc2)cc1	F

Enquiry: Tell me the recorded outcome of this test for C[C@@H]1CCCCO[C@H](CN(C)C(=O)NC2CCCCC2)[C@H](C)CN([C@@H](C)CO)C(=O)c2cc(NC(=O)Nc3ccc4c(c3)OCO4)ccc2O1 .
Return: F

Enquiry: Tell me the recorded outcome of this test for C[C@@H]1[C@@H](c2ccccc2)OC(=O)[C@@H]2[C@H]3C(=O)N([C@@H](C)CO)[C@@H]4C(=O)N(Cc5ccccc5)CC=C[C@]34O[C@@H]2/C=C/CCC(=O)N1C .
Return: F

Enquiry: Tell me the recorded outcome of this test for C[C@@H]1CN([C@H](C)CO)C(=O)c2cccc(NS(C)(=O)=O)c2O[C@@H]1CN(C)C(=O)Nc1ccc(C(F)(F)F)cc1 .
Return: T

Enquiry: Tell me the recorded outcome of this test for CN[C@@H]1[C@@H](O[C@H]2O[C@H](CO)[C@@H](N)[C@H](O)[C@H]2O)O[C@H]2C[C@@H](N)[C@H](O[C@H]3[C@H](O)[C@@H](O)[C@H](N)C[C@@H]3N)O[C@@H]2[C@@H]1O .
Return: F

Enquiry: Tell me the recorded outcome of this test for CN(CCCCCCCCCCN(C)C(=O)Oc1cccc([N+](C)(C)C)c1)C(=O)Oc1cccc([N+](C)(C)C)c1 .
Return: T

Enquiry: Tell me the recorded outcome of this test for CN1CCN(c2c(F)cc3c(=O)c(C(=O)O)cn4c3c2OCN4C)CC1 .
Return: T

Enquiry: Tell me the recorded outcome of this test for C[C@H]1COc2c(C3(N)CC3)c(F)cc3c(=O)c(C(=O)O)cn1c23 .
Return: T

Enquiry: Tell me the recorded outcome of this test for Cc1ccc(NC(=O)c2ccc(CN3CC[C@H](N(C)C)C3)c(C(F)(F)F)c2)cc1Nc1nccc(-c2cncnc2)n1 .
Return: F

Enquiry: Tell me the recorded outcome of this test for C[C@@H]1CCCCO[C@@H](CN(C)C(=O)Nc2ccccc2)[C@@H](C)CN([C@H](C)CO)C(=O)c2cc(NC(=O)CCC(F)(F)F)ccc2O1 .
Return: F

Enquiry: Tell me the recorded outcome of this test for C[C@@H]1CCCCO[C@H](CN(C)Cc2ccc(C(F)(F)F)cc2)[C@@H](C)CN([C@@H](C)CO)C(=O)c2cc(NS(=O)(=O)c3cn(C)cn3)ccc2O1 .
Return: F

Enquiry: Tell me the recorded outcome of this test for C[C@H]1CN([C@@H](C)CO)C(=O)c2cccc(NC(=O)Nc3ccc4c(c3)OCO4)c2O[C@H]1CN(C)C(=O)Nc1cccc2ccccc12 .
Return: F

Enquiry: Tell me the recorded outcome of this test for C[C@H](CO)N1C[C@H](C)[C@@H](CN(C)C(=O)Nc2ccc3c(c2)OCCO3)OCc2cn(nn2)CCCC1=O .
Return: F

Enquiry: Tell me the recorded outcome of this test for COc1ccccc1NC(=O)Nc1ccc2c(c1)OC[C@@H](C)N(Cc1ccccc1Cl)C[C@@H](C)[C@H](OC)CN(C)C2=O .
Return: F

Enquiry: Tell me the recorded outcome of this test for CC1COc2c(C3(N)CC3)c(F)cc3c(=O)c(C(=O)O)cn1c23.CS(=O)(=O)O (stereo not drawn) .
Return: F
